Ref: the supplement of paper PMC10567573

Listing of entries alongside the reported protein stability index.
B1: KLHDC10 (parent)
chain: PSLLELAWEKLLAAFPNLANLSRT

Variants of: B1
Test Summary: protein stability index of a GFP-peptide fusion (GPS, HEK-293T) (PSI 1-6); higher = more stable;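 note: lentivirally expressed fusions sorted by FACS into six bins by GFP to DsRed ratio, PSI derived from sequencing read proportions per bin multiplied by bin number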
Condition: c terminus: a fixed tail appended

Example cases with answers are listed next.
Incoming: State its protein stability index: T24Y
Outgoing: 2.32

Incoming: State its protein stability index: N17C
Outgoing: 1.81

New cases:
Incoming: State its protein stability index: P16G
Outgoing: 1.25

Incoming: State its protein stability index: A14S
Outgoing: 2.86

Incoming: State its protein stability index: P16H
Outgoing: 1.55

Incoming: State its protein stability index: L4I
Outgoing: 2.01

Incoming: State its protein stability index: W8D
Outgoing: 2.37

Incoming: State its protein stability index: L11C
Outgoing: 1.88

Incoming: State its protein stability index: S2C
Outgoing: 1.34

Incoming: State its protein stability index: K10V
Outgoing: 2.07
